These measurements were taken from patent US11209437B2.

experiment: Viscosity responsiveness: fluorescence emission spectra of probes in glycerol and methanol; type: physicochemical; conditions: probe 1×10^−5 M
value type: Fluorescence ratio in glycerol to methanol

P. CN(CCOC(=O)NCc1ccc(COc2nc(N)nc3[nH]cnc23)cc1)c1ccc2cc(/C=C(\C#N)C(=O)OC(C)(C)C)sc2c1 [probe 30]
Q. COCCNC(=O)/C(C#N)=C/c1ccc(-c2ccc(N(C)CCOC(=O)NCc3ccc(COc4nccc(N)n4)cc3)cc2)s1
R. CC1=CC(C)(C)N(CCOC(=O)NCc2ccc(COc3nccc(N)n3)cc2)c2ccc(/C=C(\C#N)C(=O)OC(C)(C)C)cc21
S. CN(CCOC(=O)NCc1ccc(COc2nc(N)nc3[nH]cnc23)cc1)c1ccc2nc(/C=C(\C#N)C(=O)OC(C)(C)C)sc2c1
**Q:** Highest Fluorescence ratio in glycerol to methanol first, then in falling order down to the smallest. Lab note: final answer is the ordered label list.
**A:** P, S, Q, R
(P: 1125, S: 359, Q: 217, R: 109)

I. CN(CCO)c1ccc2cc(/C=C(\C#N)C(=O)NCc3ccc(COc4nc(N)nc5[nH]cnc45)cc3)sc2c1 [Reference Probe 112, reference compound]
II. CN(CCOC(=O)NCc1ccc(COc2cc(Cl)nc(N)n2)cc1)c1ccc(/C=C(\C#N)c2nc3ccccc3o2)cc1
III. CC(C)(C)OC(=O)/C(C#N)=C/c1ccc2c(c1)SCCN2CCOC(=O)NCc1ccc(COc2nccc(N)n2)cc1
**Q:** Order the entries by their reported Fluorescence ratio in glycerol to methanol, beginning at the minimum. Lab note: final answer is the ordered label list.
**A:** III, I, II

A. CN(CCOC(=O)NCc1ccc(COc2cc(Cl)nc(N)n2)cc1)c1ccc(C2=C(C#N)C(=C(C#N)C#N)OC2(C)C)cc1
B. CN(CCOC(=O)NCc1ccc(COc2nccc(N)n2)cc1)c1cc2sc(/C=C(\C#N)c3nc4ccccc4s3)cc2s1
**Q:** # return whichever of A and B has the smaller Fluorescence ratio in glycerol to methanol Your answer should be the label attached to the chosen record.
**A:** A
(A: 299, B: 998)

---

experiment: Viscosity responsiveness: fluorescence emission spectra of probes in glycerol and methanol; type: physicochemical; conditions: excited at maximum excitation wavelength of each probe
value type: Emission wavelength (nm)

{"molecule": "CN(CCO)c1ccc(-c2ccc(/C=C(\\C#N)C(=O)NCc3ccc(COc4nc(N)nc5[nH]cnc45)cc3)s2)cc1 [Reference Probe 118, reference compound]", "value type": "Emission wavelength", "recorded value": 621}
{"molecule": "CN1C(=O)/C(=C/c2ccc(N(C)CCOC(=O)NCc3ccc(COc4nc(N)nc5[nH]cnc45)cc3)cc2)N=C1c1ccccc1 [probe 14]", "value type": "Emission wavelength", "recorded value": 531}
{"molecule": "CC(C)(C)OC(=O)/C(C#N)=C/c1ccc2c(c1)SCCN2CCOC(=O)NCc1ccc(COc2nc(N)nc3[nH]cnc23)cc1 [probe 83]", "value type": "Emission wavelength", "recorded value": 515}
{"molecule": "CC(C)(C)OC(=O)/C(C#N)=C/c1cc2ccc(N(CCOC(=O)NCCCS(=O)(=O)O)CCOC(=O)NCc3ccc(COc4nc(N)nc5[nH]cnc45)cc3)cc2s1 [probe 39]", "value type": "Emission wavelength", "recorded value": 570}
{"molecule": "CN(CCOC(=O)NCc1ccc(COc2cc(Cl)nc(N)n2)cc1)c1ccc(C2=C(C#N)C(=C(C#N)C#N)OC2(C)C)cc1 [probe 19]", "value type": "Emission wavelength", "recorded value": 535}
{"molecule": "CN(CCOC(=O)NCc1ccc(COc2cc(Cl)nc(N)n2)cc1)c1cc2sc(/C=C(\\C#N)C(=O)OC(C)(C)C)cc2s1 [probe 24]", "value type": "Emission wavelength", "recorded value": 555}
{"molecule": "CC1=N/C(=C/c2cc3ccc(N(C)CCOC(=O)NCc4ccc(COc5nc(N)nc6[nH]cnc56)cc4)cc3s2)C(=O)N1C [probe 41]", "value type": "Emission wavelength", "recorded value": 575}

---

Molecular target: SNAP protein tags (Homo sapiens, UniProt P16455, A127T/A154D/C150Q/C62A/E30R/G131K/G132T/G153L/K125A/K32I/L33F/M134L/N157G/Q115S/Q116H/R128A/R135S/S151G/S152D/S159E)
Sequence (P16455 1-182 E30R/K32I/L33F/C62A/Q115S/Q116H/K125A/A127T/R128A/G131K/G132T/M134L/R135S/C150Q/S151G/S152D/G153L/A154D/N157G/S159E): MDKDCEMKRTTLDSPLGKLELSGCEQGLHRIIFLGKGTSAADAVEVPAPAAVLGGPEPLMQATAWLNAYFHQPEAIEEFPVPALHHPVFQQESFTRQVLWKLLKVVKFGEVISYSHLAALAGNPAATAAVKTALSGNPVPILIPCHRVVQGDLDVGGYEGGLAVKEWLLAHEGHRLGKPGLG
Assay: Fluorescence activation of probe after incubation with corresponding protein tag (SNAP)
Type: biochemical
Conditions: probe 5 μM, protein tag 10 μM, 37° C., 1 hr
value type: Fluorescence activation multiple

{"molecule": "CN(CCOC(=O)NCc1ccc(COc2nc(N)nc3[nH]cnc23)cc1)c1ccc2c(c1)sc1cc(C=C(C#N)C#N)sc12", "value type": "Fluorescence activation multiple", "recorded value": 519}
{"molecule": "CC(C)(C)OC(=O)/C(C#N)=C/c1ccc(N(CCOC(=O)NCCCS(=O)(=O)O)CCOC(=O)NCc2ccc(COc3nc(N)nc4[nH]cnc34)cc2)cc1", "value type": "Fluorescence activation multiple", "recorded value": 270}
{"molecule": "CN(CCOC(=O)NCc1ccc(COc2nc(N)nc3[nH]cnc23)cc1)c1ccc(C#C/C=C(\\C#N)c2nc3ccccc3o2)cc1", "value type": "Fluorescence activation multiple", "recorded value": 519}

a. CN(CCO)c1ccc(C#C/C=C(\C#N)C(=O)NCc2ccc(COc3nc(N)nc4[nH]cnc34)cc2)cc1 [Reference Probe 110, reference compound]
b. CN(CCOC(=O)NCc1ccc(COc2nc(N)nc3[nH]cnc23)cc1)c1cc2sc(/C=C(\C#N)C(=O)O)cc2s1
**Q:** # return whichever of a and b has the smaller Fluorescence activation multiple Your answer should be the label attached to the chosen record.
**A:** a

---

assay: Fluorescence of free probe prior to binding to a protein tag; assay type: physicochemical
# Quantum yield of free probe per record follows

{"molecule smiles": "CC(C)(C)OC(=O)/C(C#N)=C/c1ccc2c(c1)SCCN2CCOC(=O)NCc1ccc(COc2nccc(N)n2)cc1", "Quantum yield of free probe": "<0.001"}
{"molecule smiles": "CN(CCOC(=O)NCc1ccc(COc2nc(N)nc3[nH]cnc23)cc1)c1cc2cc3sc(/C=C(\\C#N)C(=O)OC(C)(C)C)cc3cc2s1", "Quantum yield of free probe": 0.0026}

We now examine a further compound.
**Q:** Param item = "CN(CCOC(=O)NCc1ccc(COc2cc(Cl)nc(N)n2)cc1)c1ccc2nc(/C=C(\C#N)C(=O)OC(C)(C)C)sc2c1" ; retrieve measured Quantum yield of free probe.
**A:** <0.001

---

# Quantum yield of free probe per record follows
assay: Fluorescence of free probe prior to binding to a protein tag; type: physicochemical

{"molecule": "CC1=CC(C)(C)N(CCO)c2ccc(/C=C(\\C#N)C(=O)NCc3ccc(COc4nc(N)nc5[nH]cnc45)cc3)cc21 [Reference Probe 106, reference compound]", "value type": "Quantum yield of free probe", "recorded value": "<0.001"}
{"molecule": "CN(CCOC(=O)NCc1ccc(COc2nccc(N)n2)cc1)c1cc2c(s1)-c1sc(/C=C(/C#N)c3nc4ccccc4s3)cc1C2(C)C", "value type": "Quantum yield of free probe", "recorded value": "<0.001"}

**Q:** Param item = "CN(CCOC(=O)NCc1ccc(COc2nccc(N)n2)cc1)c1ccc2cc(/C=C(\C#N)C(=O)OC(C)(C)C)sc2c1" ; retrieve measured Quantum yield of free probe.
**A:** <0.001

---

assay: Viscosity responsiveness: fluorescence emission spectra of probes in glycerol and methanol; format: physicochemical; settings: probe 1×10^−5 M
value type: Fluorescence ratio in glycerol to methanol

{"compound": "CN(CCO)c1ccc(-c2ccc(/C=C(\\C#N)C(=O)NCc3ccc(COc4nc(N)nc5[nH]cnc45)cc3)s2)s1 [Reference Probe 121, reference compound]", "recorded value": 219}

I. CN(CCOC(=O)NCc1ccc(COc2cc(Cl)nc(N)n2)cc1)c1ccc2nc(/C=C(\C#N)C(=O)OC(C)(C)C)sc2c1
II. CN(CCOC(=O)NCc1ccc(COc2nc(N)nc3[nH]cnc23)cc1)c1ccc2nc(/C=C(\C#N)c3nc4ccccc4o3)sc2c1
**Q:** # return whichever of I and II has the smaller Fluorescence ratio in glycerol to methanol Your answer should be the label attached to the chosen record.
**A:** I
(I: 270, II: 391)
